Tested on: L1210 cells
Assay: Mediated transport (influx, efflux) in L1210 cells
Type: cell-based
Details: influx, n = 3-4, SE
Source text: (a) Methods are described by Sirotnak et al, "Molecular Actions and Targets for Cancer Chemotherapy Agents", Sartorelli, A.C. Ed., Academic Press., New York, pps. 349-383 (1981); Sirotnak et al, Biochem. Pharmacol., Vol. 29, p. 3293 (1980); and Sirotnak et al, Cancer Res., Vol
Output yes for Km not less than 3 µM; output no otherwise.

Quick check, Km >= 3 µM? Cc1c(CNc2ccc(C(=O)N[C@@H](CCC(=O)O)C(=O)O)cc2)cnc2nc(N)nc(N)c12 [Compound 12] no

# check: Km of Cc1c(CN(C)c2ccc(C(=O)N[C@@H](CCC(=O)O)C(=O)O)cc2)cnc2nc(N)nc(N)c12 [Compound 20] is greater than or equal to 3 µM yes

Determine whether this compound has Km no lower than 3 µM: CN(Cc1cnc2nc(N)nc(N)c2n1)c1ccc(C(=O)N[C@@H](CCC(=O)O)C(=O)O)cc1 [MTX, Methotrexate, reference compound] yes

Answer whether Km of CCN(Cc1cnc2nc(N)nc(N)c2c1C)c1ccc(C(=O)N[C@@H](CCC(=O)O)C(=O)O)cc1 [Compound 21] is greater than or equal to 3 µM. yes

Test whether the compound CN(Cc1cnc2nc(N)nc(N)c2c1)c1ccc(C(=O)N[C@@H](CCC(=O)O)C(=O)O)cc1 [Compound 5-dMTX, 5-deazamethotrexate, reference compound] records Km of 3 µM or higher. yes

Dear colleague, could you confirm whether Nc1nc(N)c2cc(CNc3ccc(C(=O)N[C@@H](CCC(=O)O)C(=O)O)cc3)cnc2n1 [Compound 11] has Km at or above 3 µM? no
